Source listed as patent US20180291110A1.

- target-entity: T1, human transferrin receptor (recombinant, for surface plasmon resonance) (human, UniProt P02786 89-760)
- T1 construct: also called huTfR; human transferrin receptor-biotinylated
- T1 sequence (P02786 89-760 limits assumed): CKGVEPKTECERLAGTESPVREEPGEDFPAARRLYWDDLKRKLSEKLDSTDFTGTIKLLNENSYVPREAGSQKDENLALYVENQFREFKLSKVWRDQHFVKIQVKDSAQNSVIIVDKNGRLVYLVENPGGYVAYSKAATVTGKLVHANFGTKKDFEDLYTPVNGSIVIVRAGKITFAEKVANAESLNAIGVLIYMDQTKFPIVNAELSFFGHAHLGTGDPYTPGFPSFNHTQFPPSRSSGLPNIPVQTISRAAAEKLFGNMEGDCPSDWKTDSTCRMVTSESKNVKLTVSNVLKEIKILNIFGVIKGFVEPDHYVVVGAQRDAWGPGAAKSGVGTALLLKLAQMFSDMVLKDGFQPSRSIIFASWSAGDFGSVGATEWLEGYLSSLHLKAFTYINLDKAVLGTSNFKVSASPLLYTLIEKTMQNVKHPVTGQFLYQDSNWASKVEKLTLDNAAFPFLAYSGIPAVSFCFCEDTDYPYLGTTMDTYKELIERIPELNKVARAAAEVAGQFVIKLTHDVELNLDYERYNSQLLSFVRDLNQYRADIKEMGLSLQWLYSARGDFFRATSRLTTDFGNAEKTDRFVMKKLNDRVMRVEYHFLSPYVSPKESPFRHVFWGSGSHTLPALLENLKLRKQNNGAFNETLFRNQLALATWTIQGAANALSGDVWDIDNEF
- experiment-description: SPR 25C
Hi there, I'd appreciate the recorded koff for every entry that follows.
Returns: string containing the numeric result and its unit.

2/99 VH17/VL6 (antibody, V domains shown) VH: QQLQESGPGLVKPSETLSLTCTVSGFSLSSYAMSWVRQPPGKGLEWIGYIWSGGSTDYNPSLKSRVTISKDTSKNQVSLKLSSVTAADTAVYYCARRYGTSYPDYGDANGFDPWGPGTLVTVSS VL: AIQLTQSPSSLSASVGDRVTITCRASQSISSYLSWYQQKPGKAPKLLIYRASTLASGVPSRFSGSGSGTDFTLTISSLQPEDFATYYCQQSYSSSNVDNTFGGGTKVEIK; 0.00171 s⁻¹
2/99 VH17/VL14 (antibody, V domains shown) VH: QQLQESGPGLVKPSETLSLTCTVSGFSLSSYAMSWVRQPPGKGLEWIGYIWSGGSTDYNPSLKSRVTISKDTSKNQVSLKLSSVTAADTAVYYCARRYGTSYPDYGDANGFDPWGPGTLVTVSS VL: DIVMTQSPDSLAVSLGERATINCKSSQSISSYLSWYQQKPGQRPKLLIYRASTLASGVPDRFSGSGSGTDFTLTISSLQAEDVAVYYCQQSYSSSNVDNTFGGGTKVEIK; 0.00105 s⁻¹
2/99 VH6/VL4 (antibody, V domains shown) VH: QQLVETGGGLIQPGGSLRLSCAASGFSLSSYAMSWVRQAPGKGLEWIGYIWSGGSTDYADSVKGRFTISRDNSKNTLYLQMNSLRAEDTAVYYCARRYGTSYPDYGDANGFDPWGQGTLVTVSS VL: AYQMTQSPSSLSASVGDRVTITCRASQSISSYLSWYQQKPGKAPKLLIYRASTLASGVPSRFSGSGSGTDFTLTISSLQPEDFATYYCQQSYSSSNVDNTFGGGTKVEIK; 0.00187 s⁻¹

For every item in the list below, what is its measured koff?
1. 2/99 VH8/VL17 (antibody, V domains shown) VH: QQLVETGGGLIQPGGSLRLSCAASGFSLSSYAMSWVRQAPGKGLEWIGYIWSGGSTDYASWAKGRFTISKTSTTLYLQMNSLRAEDTAVYYCARRYGTSYPDYGDANGFDPWGQGTLVTVSS VL: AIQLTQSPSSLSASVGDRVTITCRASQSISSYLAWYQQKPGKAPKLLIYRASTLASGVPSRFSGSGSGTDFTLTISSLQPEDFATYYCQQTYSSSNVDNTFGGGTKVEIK
2. 2/99 VH9/VL4 (antibody, V domains shown) VH: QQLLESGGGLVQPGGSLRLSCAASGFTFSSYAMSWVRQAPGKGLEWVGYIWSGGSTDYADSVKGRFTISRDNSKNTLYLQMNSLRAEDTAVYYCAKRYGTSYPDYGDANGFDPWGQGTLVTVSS VL: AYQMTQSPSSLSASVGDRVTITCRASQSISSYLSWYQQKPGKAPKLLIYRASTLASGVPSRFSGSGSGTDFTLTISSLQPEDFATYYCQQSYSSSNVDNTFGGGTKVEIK

1: 0.00112 s⁻¹; 2: 0.0027 s⁻¹
